system: T1, human δ opioid receptor (human, UniProt P41143 1-372)
T1 construct: whole, on cells; Assayed as membrane preparations of transfected cells; also called hDOR; DOR
T1 sequence (P41143 whole entry, stated change not applied): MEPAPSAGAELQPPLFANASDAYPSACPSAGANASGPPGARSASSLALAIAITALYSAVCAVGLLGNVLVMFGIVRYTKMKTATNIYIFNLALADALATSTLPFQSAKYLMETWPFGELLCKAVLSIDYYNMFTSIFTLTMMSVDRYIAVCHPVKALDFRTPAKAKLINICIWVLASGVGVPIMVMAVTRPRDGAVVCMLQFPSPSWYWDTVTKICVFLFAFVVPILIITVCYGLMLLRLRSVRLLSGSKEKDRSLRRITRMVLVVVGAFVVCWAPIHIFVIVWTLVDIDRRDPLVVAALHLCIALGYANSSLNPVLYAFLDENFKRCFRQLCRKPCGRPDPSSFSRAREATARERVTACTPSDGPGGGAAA
experimental.protocol: competition vs [3H]DPDPE, membranes of hDOR-transfected HN9.10 cells
Square brackets hold non-standard residues; d marks the D form. * marks the point of attachment. OBzl(3,5-(CF3)2) = FC(F)(F)c1cc(CO*)cc(C(F)(F)F)c1; Met(O) = CS(=O)CC[C@H](N)C(=O)O
Can you tell me Ki for the items I'm about to list?
Quick note: give the figure in nM, leave out the unit.

Could you tell me which Ki is on file for H-Y[dA]GFLPLW-{OBzl(3,5-(CF3)2)} (also: TFA salt, TFA salt; also called TY004) [H-Tyr-D-Ala-Gly-Phe-Leu-Pro-Leu-Trp-O-3,5-Bzl(CF3)2] ? 5

Record request: Ki value, item YAGFXPLW (D-Ala at 2; Nle (norleucine, written X) at 5; C-terminal 3,5-bis(trifluoromethyl)benzyl ester, TFA salt; also called TY018) [H-Tyr-D-Ala-Gly-Phe-Nle-Pro-Leu-Trp-O-3,5-Bzl(CF3)2] 1.8

What value of Ki has been recorded for this entry: H-Y[dA]GFGPLW-{OBzl(3,5-(CF3)2)} (also: TFA salt, TFA salt; also called TY006) [H-Tyr-D-Ala-Gly-Phe-Gly-Pro-Leu-Trp-O-3,5-Bzl(CF3)2] 36.1

What does the data say about its Ki? Entry: H-Y[dA]GFFPLW-{OBzl(3,5-(CF3)2)} (also: TFA salt, TFA salt; also called TY003) [H-Tyr-D-Ala-Gly-Phe-Phe-Pro-Leu-Trp-O-3,5-Bzl(CF3)2] 14.6

Entry under review: H-Y[dA]GF[Met(O)]PLW-{OBzl(3,5-(CF3)2)} (also: TFA salt, TFA salt; also called TY023) [H-Tyr-D-Ala-Gly-Phe-Met(O)-Pro-Leu-Trp-O-3,5-Bzl(CF3)2] . Reported Ki? 4.8

Which Ki is reported for this binder? H-Y[dA]GFMPLW-{OBzl(3,5-(CF3)2)} (also: TFA salt, TFA salt; also called TY005; TY5) [H-Tyr-D-Ala-Gly-Phe-Met-Pro-Leu-Trp-O-3,5-Bzl(CF3)2] 2.8

Looking for the measured Ki of H-Y[dA]GF[dF]PLW-{OBzl(3,5-(CF3)2)} (also: TFA salt, TFA salt; also called TY007) [H-Tyr-D-Ala-Gly-Phe-D-Phe-Pro-Leu-Trp-O-3,5-Bzl(CF3)2] , can you help? 93
